Below, each entry is listed alongside its reported DC50.
Biological target: ER-α in MCF-7 cells (Homo sapiens, UniProt P03372)
Sequence (P03372 whole entry): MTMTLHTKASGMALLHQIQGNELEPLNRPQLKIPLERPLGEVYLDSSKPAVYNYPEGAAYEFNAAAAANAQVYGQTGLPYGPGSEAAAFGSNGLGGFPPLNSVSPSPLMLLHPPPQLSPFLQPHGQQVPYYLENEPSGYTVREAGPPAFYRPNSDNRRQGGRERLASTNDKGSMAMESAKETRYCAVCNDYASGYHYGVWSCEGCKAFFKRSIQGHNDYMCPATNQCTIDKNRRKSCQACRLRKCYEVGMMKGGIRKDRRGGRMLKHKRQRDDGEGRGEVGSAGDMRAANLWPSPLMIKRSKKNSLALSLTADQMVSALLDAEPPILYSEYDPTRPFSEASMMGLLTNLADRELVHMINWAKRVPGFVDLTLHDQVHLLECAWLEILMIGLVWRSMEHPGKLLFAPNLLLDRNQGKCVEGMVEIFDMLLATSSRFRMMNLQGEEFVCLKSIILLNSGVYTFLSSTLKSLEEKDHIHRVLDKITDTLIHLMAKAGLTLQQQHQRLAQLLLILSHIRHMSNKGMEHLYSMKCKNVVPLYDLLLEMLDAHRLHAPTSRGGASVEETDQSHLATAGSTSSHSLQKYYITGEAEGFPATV
Assay: Breast cancer cell ER-α in cell western assay (SP1)
Type: cell-based
Design: endogenous in cells; host or cells: MCF-7
Conditions: SP1 antibody, 4 or 24 hr post compound addition, read-out: ER-α In Cell Western Assay (SP1) IC50

Recorded DC50, per entry:
CC/C(=C(/c1ccc(/C=C/C(=O)O)cc1)c1ccc2ncsc2c1)c1ccccc1 > 100 nM
CC/C(=C(/c1ccc(/C=C/C(=O)O)cc1)c1ccc2[nH]ncc2c1)c1ccc2sc(C)nc2c1 ≤ 100 nM

Give its DC50 value. Item: CC/C(=C(/c1ccc(/C=C/C(=O)O)cc1)c1ccc2[nH]ncc2c1)c1cccc(Oc2ccncc2C(F)(F)F)c1 ≤ 100 nM
